The measurements presented in this section are drawn from paper PMC4741700.

system: HL60 promyelocytic leukemia cell line; assay: Proliferation inhibition of HL60 cells; assay type: cell-based; settings: Homo sapiens, HL-60
observable: log10 of IC50 (log10 of the value in µM)
Please keep in mind that the values are log10 of IC50 expressed in µM.

C=C(C)C1CCC2(C(=O)O)CCC3(C)C(CCC4C5(C)Cc6nccnc6C(C)(C)C5CCC43C)C12 (centres unmarked)
-0.09
CC1(C)CCC2(C(=O)O)CCC3(C)C(=CCC4C5(C)CCC(=O)C(C)(C)C5CCC43C)C2C1 (centres unmarked)
1.08
C=C(C)C1CCC2(C(=O)O)CCC3(C)C(CCC4C5(C)Cc6nc7ccccc7nc6C(C)(C)C5CCC43C)C12 (centres unmarked)
1.03
CC1=C(O)C(=O)C=C2C1=CC=C1[C@@]2(C)CC[C@@]2(C)[C@@H]3C[C@](C)(C(=O)O)CC[C@]3(C)CC[C@]12C [Celastrol, celastrol, reference compound]
-0.34

Ask | Query (compound): C=C(C)C1CCC2(C(=O)O)CCC3(C)C(CCC4C5(C)CCC(=O)C(C)(C)C5CCC43C)C12 (centres unmarked) ; field requested: log10 of IC50
Reply | 1.12
